// IC50 lookup, one value per entry
# Test system: Plasmodium falciparum
# ASSAY_PROTOCOL: Antimicrobial activity against Plasmodium falciparum D6 after 72 hrs by LDH activity assay
# Format: functional, organism-based
# CONDITIONS: Plasmodium falciparum, D6, 72 h; read-out: IC50
I only need the number, in µM, no unit after it.

{"MOLECULE": "Nc1nccc(-c2cn(Cc3c4ccccc4cc4ccccc34)c3ccccc23)n1", "MEASUREMENT_UNIT": "µM", "VALUE_REPORTED": 7.06}
{"MOLECULE": "CN1CCN(C(=O)n2cc(-c3ccnc(N)n3)c3ccccc32)CC1", "MEASUREMENT_UNIT": "µM", "VALUE_REPORTED": 9.63}
{"MOLECULE": "Nc1nccc(-c2c[nH]c3ccccc23)n1", "MEASUREMENT_UNIT": "µM", "VALUE_REPORTED": 9.69}
{"MOLECULE": "Nc1nccc(-c2cn(Cc3ccc(Cl)s3)c3ccc(Br)cc23)n1", "MEASUREMENT_UNIT": "µM", "VALUE_REPORTED": 13.6}

Determine reported IC50 for `Nc1nccc(-c2cn(C(=O)N3CCOCC3)c3ccccc23)n1` ; test system: Plasmodium falciparum.
4.01

Determine reported IC50 for `Nc1nccc(-c2cn(C(=O)c3ccccc3)c3ccccc23)n1` ; test system: Plasmodium falciparum.
11.4

Determine reported IC50 for `Nc1nccc(-c2cn(C(=O)c3ccccc3)c3ccc(Br)cc23)n1` ; test system: Plasmodium falciparum.
7.45

Determine reported IC50 for `Nc1nccc(-c2cn(Cc3c4ccccc4cc4ccccc34)c3ccc(Br)cc23)n1` ; test system: Plasmodium falciparum.
11.1

Determine reported IC50 for Nc1nccc(-c2c[nH]c3ccc(Br)cc23)n1 [MERIDIANIN C] ; test system: Plasmodium falciparum.
14.4

Determine reported IC50 for `Cc1noc(C)c1Cn1cc(-c2ccnc(N)n2)c2cc(Br)ccc21` ; test system: Plasmodium falciparum.
9.62

Determine reported IC50 for `Cc1noc(C)c1Cn1cc(-c2ccnc(N)n2)c2ccccc21` ; test system: Plasmodium falciparum.
12.4

These measurements were taken from ChEMBL document CHEMBL3132801.
